biological target: EGFR (Homo sapiens, UniProt P00533); construct: purchased Carna Biosciences, Inc; host or cells: insect cell expression system; test: Enzyme inhibitory activity on EGFR (time resolution fluorescence, biotinylated poly-Glu-Tyr substrate); format: biochemical; conditions: EGFR purified from insect cell expression system; ATP solution 125 μM; room temperature, 60 minutes
Sequence (P00533 25-1210): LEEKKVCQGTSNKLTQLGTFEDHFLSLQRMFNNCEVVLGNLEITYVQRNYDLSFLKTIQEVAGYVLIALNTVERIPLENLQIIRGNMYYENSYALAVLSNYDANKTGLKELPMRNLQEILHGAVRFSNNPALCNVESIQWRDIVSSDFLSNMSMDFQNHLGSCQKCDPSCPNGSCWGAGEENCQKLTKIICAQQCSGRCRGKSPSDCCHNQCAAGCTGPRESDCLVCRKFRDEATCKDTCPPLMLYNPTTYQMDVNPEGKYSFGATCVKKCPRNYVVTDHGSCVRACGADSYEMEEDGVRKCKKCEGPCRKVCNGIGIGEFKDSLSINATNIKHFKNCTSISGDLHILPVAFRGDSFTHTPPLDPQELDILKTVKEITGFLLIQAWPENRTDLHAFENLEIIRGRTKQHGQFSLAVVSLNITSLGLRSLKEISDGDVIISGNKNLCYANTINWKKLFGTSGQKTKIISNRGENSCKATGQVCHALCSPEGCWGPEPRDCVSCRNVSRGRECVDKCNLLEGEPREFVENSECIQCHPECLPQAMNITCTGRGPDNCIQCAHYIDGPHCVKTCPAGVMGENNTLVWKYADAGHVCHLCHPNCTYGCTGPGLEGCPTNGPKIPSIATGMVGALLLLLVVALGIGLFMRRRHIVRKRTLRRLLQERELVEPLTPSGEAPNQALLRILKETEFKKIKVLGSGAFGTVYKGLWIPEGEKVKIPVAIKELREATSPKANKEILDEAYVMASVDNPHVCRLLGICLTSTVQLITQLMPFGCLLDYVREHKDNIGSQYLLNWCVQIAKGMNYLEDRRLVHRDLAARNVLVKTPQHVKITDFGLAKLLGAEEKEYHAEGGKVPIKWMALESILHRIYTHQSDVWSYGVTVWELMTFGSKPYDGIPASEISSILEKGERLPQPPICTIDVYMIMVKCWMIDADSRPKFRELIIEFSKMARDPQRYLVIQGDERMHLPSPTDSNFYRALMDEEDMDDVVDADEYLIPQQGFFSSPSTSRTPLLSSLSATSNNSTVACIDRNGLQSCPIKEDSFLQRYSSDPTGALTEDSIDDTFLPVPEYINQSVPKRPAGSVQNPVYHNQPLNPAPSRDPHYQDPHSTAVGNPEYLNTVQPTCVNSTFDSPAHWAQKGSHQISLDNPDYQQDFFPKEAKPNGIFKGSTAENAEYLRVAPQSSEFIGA
Quick reference: IC50 of the listed items.

>  <Smiles String>
Fc1cccc(COc2ccc(Nc3ncnc4ccc(C(=NOCCN5CCOCC5)c5ccccc5)cc34)cc2Cl)c1

>  <IC50>
300 nM

$$$$
>  <Smiles String>
CC#C/C(=N\OC[C@H]1CNC[C@H](C)O1)c1ccc2ncnc(Nc3ccc(OCc4cccc(F)c4)c(Cl)c3)c2c1

>  <IC50>
47 nM

$$$$
>  <Smiles String>
CC#C/C(=N\OC[C@H]1NCCO[C@@H]1C)c1ccc2ncnc(Nc3ccc(OCc4cccc(F)c4)c(Cl)c3)c2c1

>  <IC50>
150 nM

$$$$
>  <Smiles String>
CC#C/C(=N\OCCNC[C@H](C)CO)c1ccc2ncnc(Nc3ccc(OCc4cccc(F)c4)c(Cl)c3)c2c1

>  <IC50>
9.6 nM

$$$$

###

Quick reference: IC50 of the listed items.
molecular target: EGFR (Homo sapiens, UniProt P00533); construct: purchased Carna Biosciences, Inc; host or cells: insect cell expression system; test: Enzyme inhibitory activity on EGFR (time resolution fluorescence, biotinylated poly-Glu-Tyr substrate); format: biochemical; settings: EGFR purified from insect cell expression system; ATP solution 125 μM; room temperature, 60 minutes
Outcome Measure: IC50 (nM)

>  <Compound>
Fc1cccc(COc2ccc(Nc3ncnc4ccc(/C=N/OCCN5CCOCC5)cc34)cc2Cl)c1 [Compound V-7]

>  <System Name>
EGFR (Homo sapiens, UniProt P00533)

>  <Recorded Value>
36

$$$$
>  <Compound>
CC#C/C(=N\OC[C@H]1CCCN1CCO)c1ccc2ncnc(Nc3ccc(OCc4cccc(F)c4)c(Cl)c3)c2c1 [VIII-90]

>  <System Name>
EGFR (Homo sapiens, UniProt P00533)

>  <Recorded Value>
93

$$$$
>  <Compound>
CC#C/C(=N\OC[C@@H]1CCCN1C)c1ccc2ncnc(Nc3ccc(OCc4cccc(F)c4)c(Cl)c3)c2c1 [VIII-75]

>  <System Name>
EGFR (Homo sapiens, UniProt P00533)

>  <Recorded Value>
50

$$$$
>  <Compound>
Fc1cccc(COc2ccc(Nc3ncnc4ccc(/C=N/OCCN5CCCC5)cc34)cc2Cl)c1 [Compound V-6]

>  <System Name>
EGFR (Homo sapiens, UniProt P00533)

>  <Recorded Value>
6.5

$$$$

###

tested on: BT-474; test: In vitro cell proliferation inhibition, WST assay; format: cell-based, human; conditions: Homo sapiens, BT-474, 72 h, BT-474 cells, cultured for 3 days, read-out: BT-474 (nM) proliferation inhibitory activity (IC50 value)
Quick reference: IC50 of the listed items.

>  <Molecule>
CC#C/C(=N\OCCNCCNC(C)=O)c1ccc2ncnc(Nc3ccc4c(cnn4Cc4cccc(F)c4)c3)c2c1 [VIII-184]

>  <System Name>
BT-474

>  <Result Unit>
nM

>  <IC50>
9

$$$$
>  <Molecule>
CC#C/C(=N\OC[C@@H]1CCCN1CCO)c1ccc2ncnc(Nc3ccc(OCc4ccccn4)c(Cl)c3)c2c1 [VIII-160]

>  <System Name>
BT-474

>  <Result Unit>
nM

>  <IC50>
47

$$$$
>  <Molecule>
CC#C/C(=N\OCCNCCCN1CCCC1=O)c1ccc2ncnc(Nc3ccc(OCc4ccccn4)c(Cl)c3)c2c1 [VIII-133]

>  <System Name>
BT-474

>  <Result Unit>
nM

>  <IC50>
43

$$$$
>  <Molecule>
CC#C/C(=N\OCCN1CCCC1)c1ccc2ncnc(Nc3ccc(OCc4ccccn4)c(Cl)c3)c2c1 [VIII-148]

>  <System Name>
BT-474

>  <Result Unit>
nM

>  <IC50>
26

$$$$
